# Test system: A549
# Assay Name: Euclidean distance of Cell Painting phenotypic profile (signed KS, 77 features) to DMSO centroid (dimensionless distance); 5 or 10 uM (library dependent); higher = stronger phenotypic change vs DMSO (phenoactivity)
# Condition Summary: 48 h
Structures can show the parent of a compound that is named as a salt.
Response key: 1 means Euclidean distance >= 1; 0 means Euclidean distance < 1.

- Compound: "CCc1cccc(CC)c1NC(=O)N1Cc2[nH]nc(NC(=O)c3ccc(N4CCN(C)CC4)cc3)c2C1"
  Answer Label: 1

Exercise: Given the entry CCOC(=O)[C@H](CCc1ccccc1)N[C@H]1CS[C@H](c2cccs2)CN(CC(=O)O)C1=O [Temocapril HCl] , answer whether its Euclidean distance meets or surpasses 1.
Key: 0

Exercise: Given the entry "Cn1ccnc1S" , answer whether its Euclidean distance meets or surpasses 1.
Key: 1

Exercise: Given the entry Cl.NCCCC[C@H](N)C(=O)O [L-Lysine hydrochloride] , answer whether its Euclidean distance meets or surpasses 1.
Key: 1

Exercise: Given the entry "CCCCC(=O)N(Cc1ccc(-c2ccccc2-c2nnn[nH]2)cc1)[C@H](C(=O)O)C(C)C" , answer whether its Euclidean distance meets or surpasses 1.
Key: 1
